tested on: Saccharomyces cerevisiae; experiment: protein stability index of tFT-peptide fusion (C-terminal peptide) (PSI (0-1 scale)); higher = more stable (slower turnover); details: genetic background: wild type; temperature: 30 C
In this section we review reported protein stability index values for a set of sequences.
property: protein stability index

SGSFPSLALLSS; 0.642
PITFTSRYLLLE; 0.697
HRTKRPKTKRPP; 0.628
YGCVSPVAGFAN; 0.725

----------
system: Saccharomyces cerevisiae; assay: protein stability index of tFT-peptide fusion (C-terminal peptide) (PSI (0-1 scale)); higher = more stable (slower turnover); conditions: genetic background: wild type; temperature: 30 C
Hi, to clarify the labels: yes covers protein stability index from 0.7 upward, no covers anything below 0.7.

CSLTLPFFFGSL; no
SVGIWSYGLCWF; yes
PHPPPSSRLLSR; yes
CRPFGVSCHIRV; yes
WVVWWFACVFGV; no
STCVRSRTCETP; no
LGSSQVGLVRRV; no
PLLPRTPPLSAT; no
PPPPPRPPPSSP; yes
DGCRFEFVPSGD; no
MALAVRVVGCGA; no
CFGMMVFFHRVI; no
PGTNENPLSPGK; yes
WLVVGGVVLLVV; no
PPPPPRPSPHPP; no
KLLLYNILSYWS; no
YRLDTFCPHFSN; yes
AARQRWSLEFLD; no
PLFLCVISPFRL; no
VATGVFADPMMC; no
SLDQRPSLSFKR; no
CGSGVAVGVLVL; no
DGAVRLGGGGLG; no
CHMSLDGPLLGF; yes

----------
system: Saccharomyces cerevisiae; assay: protein stability index of tFT-peptide fusion (C-terminal peptide) (PSI (0-1 scale)); higher = more stable (slower turnover); conditions: genetic background: wild type; temperature: 37 C
Collected protein stability index values appear next to each entry.
property: protein stability index

WEISNFFGCFIG; 0.552
FGCLFILRCSFL; 0.497
FTEFWFFKQMSV; 0.137
SFWLFSSIGVCF; 0.577
WSCFLLLLSLSL; 0.496
VPSMSIVWCRVL; 0.12
FSLLFVRFCFFL; 0.337
FYSLVQAWSKAP; 0.627
CASIVDGFAFRF; 0.747
YTCFLFLLRCMT; 0.294
ICSRCLVTVLSC; 0.367
VVSGLNYCLVLS; 0.483
GSRRYYFTWVYQ; 0.0876
VLVFYFCFSFCS; 0.273
LCWASLLIVYLP; 0.463
WIYKIVTYEKKS; 0.702
FLAPPFLPPPPA; 0.737
HDLRRRVVSVMV; 0.476

----------
test system: Saccharomyces cerevisiae; assay: protein stability index of tFT-peptide fusion (C-terminal peptide) (PSI (0-1 scale)); higher = more stable (slower turnover); conditions: genetic background: wild type; temperature: 30 C
Catalogue of protein stability index readings, one per entry.
property: protein stability index

VLLGSEGGVQSR; 0.646
PAVGPDGTIRPL; 0.706
TSPTPFVSCSLP; 0.629
SGGADYMDPRLT; 0.714

----------
system: Saccharomyces cerevisiae; assay: protein stability index of tFT-peptide fusion (C-terminal peptide) (PSI (0-1 scale)); higher = more stable (slower turnover); conditions: genetic background: wild type; temperature: 30 C
property: protein stability index

WSRRGQRGKAWR; 0.733
EVFGAGRNDPGS; 0.689
GTASGGPKVSLF; 0.656

----------
protein stability index reference
test system: Saccharomyces cerevisiae; test: protein stability index of tFT-peptide fusion (C-terminal peptide) (PSI (0-1 scale)); higher = more stable (slower turnover); settings: genetic background: wild type; temperature: 30 C
property: protein stability index

PPPPPPPPPTFL; 0.708
GKMLSRPRKTEN; 0.711
PLTVARTHRGHA; 0.689
EMTRELLMRVSK; 0.704
GRRCKNMKKMSW; 0.674
CLWLRCIVSILP; 0.239
CEPSLPGRSRRA; 0.753
SPPLPSPPTLRL; 0.701
SPPLPARSQSSI; 0.708
SSLRSFPLLEHT; 0.686
GGWCGGGGAWSG; 0.698
ENQKKSKTNRKK; 0.658

----------
protein stability index values, listed per item
test system: Saccharomyces cerevisiae; assay: protein stability index of tFT-peptide fusion (C-terminal peptide) (PSI (0-1 scale)); higher = more stable (slower turnover); settings: genetic background: wild type; temperature: 30 C
property: protein stability index

PPPIPLSPPLVL; 0.72
GSRSSDTGGRLM; 0.682
GCSVSRIRSAYV; 0.672
DGRYVDSEIDNP; 0.714
PRPRRFPPPLLA; 0.51
CFLFLTVSSREG; 0.534
EWCAVYDQGNRF; 0.818
PIYRNKGNRGGI; 0.739
PPRPPPSPPLPS; 0.663
TRSISPGTFWTS; 0.723
GRGGLGGGEWDR; 0.711
ASRSGVPGVRVG; 0.685
NPLKAGFLVVTT; 0.651
LRVFKVCSGISG; 0.642
CVTFHKGRVFLR; 0.609
LLRVLVTFDAFD; 0.576
TLGTSPPPAYLS; 0.638
HLSHVLLGITFV; 0.603
GGRGSGLVGCSL; 0.6
RGRWLKNARLSM; 0.634
LSIGCRCLWGWF; 0.465
LSSLYSSLTFFL; 0.651
TKDRIIMKKKKE; 0.721
FSLLPFFRHIFL; 0.637

----------
tested on: Saccharomyces cerevisiae; assay: protein stability index of tFT-peptide fusion (C-terminal peptide) (PSI (0-1 scale)); higher = more stable (slower turnover); conditions: genetic background: doa10 deletion; temperature: 30 C
Short version: protein stability index at least 0.2 is Y, less is N.

LLWALGLVLVEG; N
CRCLFVVKNWLS; N
LFWPPCYLFFCL; Y
GGSHVWKFYRNF; Y
FCFFSMGFVLAL; Y
LFLSFLLLYFRP; Y

----------
Reported protein stability index by item:
system: Saccharomyces cerevisiae; test: protein stability index of tFT-peptide fusion in deletion strain of DAS1 (PSI (0-1 scale)); higher = more stable (slower turnover)
property: protein stability index

PSLAASFWRVVA; 0.68
LVVYLSCVACINC; 0.0918
KKHKRGQKQKIN; 0.617
FSMRWTFRLWVN; 0.291
CTSCGYKFQTNN; 0.723
CTSCGYKFRTNV; 0.681
KKHKGGQKQKIN; 0.584
ARWRVGCWRGAS; 0.637
PILAASFWRVVG; 0.678
KKHDKGQKQKIN; 0.587
FSMQWTFRYWVN; 0.466
KKHKKGQKQKINI; 0.661
RLIQPLPVQFLY; 0.682
CTMCGYKFRTNN; 0.69
CTSCPYKFRTNN; 0.666
RLIQPLPVQRLN; 0.643
PMKRNHLIKLLN; 0.569
RLIQPLPVQFLV; 0.643
RLIQPLPVQFLNN; 0.663
LVVYLSCVYCIN; 0.158
LKILRQKANHQN; 0.688
LKILRQKMNHQY; 0.684
ARWRVGLHRGAS; 0.685
PDKRNHLIKLLW; 0.586
LVVYLMCVACIN; 0.0335
ARWRVGKWRGAS; 0.687
LVVYLSCVACINR; 0.034
ARWRVGLWMGAS; 0.667
PSLAASFWRVVG; 0.686
FSMRWTFVYWVN; 0.327
KKHKKGQKQKGN; 0.616
PDKRNHLIKLLP; 0.596
CTSCGYKFRTNNL; 0.715
KKHKKIQKQKIN; 0.631
FSMRWTFRYWVNA; 0.496
PSLAPSFWRVVG; 0.682
VRGIVGGWRLVG; 0.682
FSMRWTFQYWVN; 0.502

----------
Consider the following sequences and their measured protein stability index readings.
test system: Saccharomyces cerevisiae; experiment: protein stability index of tFT-peptide fusion (C-terminal peptide) (PSI (0-1 scale)); higher = more stable (slower turnover); details: genetic background: das1 deletion; temperature: 30 C
property: protein stability index

DDCLIELPNGNI [RRN9 C-terminal 12 aa]; 0.689
CNLFSERKPVNH [YGL188C-A C-terminal 12 aa]; 0.697
DATLYLGRFLPH [PEF1 C-terminal 12 aa]; 0.708
RPFEIASFRLYF [AMS1 C-terminal 12 aa]; 0.703
EAAKKSEKKSKK [RPL34B C-terminal 12 aa]; 0.702
NLVASKQLSTYK [RAV2 C-terminal 12 aa]; 0.694
VMEEEEQDCKCI [POP8 C-terminal 12 aa]; 0.692
RITRLSSMTYTY [YPS5 C-terminal 12 aa]; 0.711
GQPPAPFRLRSD [SDS3 C-terminal 12 aa]; 0.711
TAPLGKALHDLS [REE1 C-terminal 12 aa]; 0.687
EKLKLLNSQQKD [PET191 C-terminal 12 aa]; 0.682
DAKNANEKNKTY [PIS1 C-terminal 12 aa]; 0.687
EIGGLLLQSFYN [YPL119C-A C-terminal 12 aa]; 0.687
ELLRIHNSHLRN [FOL3 C-terminal 12 aa]; 0.715
PIKEVLLENWDQ [PUS5 C-terminal 12 aa]; 0.715
VYENNSYPNSHT [RTT105 C-terminal 12 aa]; 0.696
IERLFKEEEYYS [TCD1 C-terminal 12 aa]; 0.702
TPSSVQSSPKRA [ZRG8 C-terminal 12 aa]; 0.696
